Hey, just so you know, these numbers are from ChEMBL document CHEMBL3885861.

Organism: Rattus norvegicus
Assay: Open TG-GATES - Regimen: Daily Repeat
Format: toxicity, organism-based, Sprague-Dawley
Parameters: regimen Daily Repeat, gender Male, age 6 weeks
Conditions: in vivo, po, 0 mg/kg, 72 h, tissue Blood, route gavage, dose level Control, time 3 day
property name: Eos (%)
Respond with the bare value in %.

- compound: "CN(C)CCC(c1ccc(Cl)cc1)c1ccccn1 (stereo not drawn)"
  unit annotation: "%"
  Eos: 1.2

API: the following record is the query input.
// query Find the measured Eos of `CC(C)NNC(=O)c1ccncc1` and report it.
// result 1

* * *

Organism: Rattus norvegicus
Assay: Open TG-GATES - Regimen: Single
Format: toxicity, organism-based, Sprague-Dawley
Parameters: regimen Single, gender Male, age 6 weeks
Conditions: in vivo, po, 0 mg/kg, 9 h, tissue Plasma, route gavage, dose level Control
property name: K (meq/L)
Respond with the bare value in meq/L.

- molecule: "CS(=O)(=O)O.Cc1ccc(NC(=O)c2ccc(CN3CCN(C)CC3)cc2)cc1Nc1nccc(-c2cccnc2)n1 [IMATINIB MESYLATE]"
  K / meq/L: 3.9
- molecule: "Cc1nnc2n1-c1ccc(Cl)cc1C(c1ccccc1Cl)=NC2 [TRIAZOLAM]"
  K / meq/L: 4.1
- molecule: "CN/C(=N/CCSCc1nc[nH]c1C)NC#N [CIMETIDINE]"
  K / meq/L: 3.8
- molecule: "CCCc1cc(=O)[nH]c(=S)[nH]1 [PROPYLTHIOURACIL]"
  K / meq/L: 5.2
- molecule: "Brc1ccccc1 [BROMOBENZENE]"
  K / meq/L: 3.6
- molecule: "O=C(OC[C@H]1O[C@@H](OC(=O)c2cc(O)c(O)c(OC(=O)c3cc(O)c(O)c(O)c3)c2)[C@H](OC(=O)c2cc(O)c(O)c(OC(=O)c3cc(O)c(O)c(O)c3)c2)[C@@H](OC(=O)c2cc(O)c(O)c(OC(=O)c3cc(O)c(O)c(O)c3)c2)[C@@H]1OC(=O)c1cc(O)c(O)c(OC(=O)c2cc(O)c(O)c(O)c2)c1)c1cc(O)c(O)c(OC(=O)c2cc(O)c(O)c(O)c2)c1 [TANNIC ACID]"
  K / meq/L: 4.9

API: the following record is the query input.
// query Find the measured K of CN(C)CCC(c1ccc(Cl)cc1)c1ccccn1 (configuration not stated) [CHLORPHENIRAMINE] and report it.
// result 4

* * *

Species on record: Rattus norvegicus
Test: Open TG-GATES - Regimen: Single
Assay type: toxicity, organism-based, Sprague-Dawley
Design: regimen Single, gender Male, age 6 weeks
Conditions: in vivo, po, 1000 mg/kg, 3 h, tissue Plasma, route gavage, dose level High
Attribute: TG
Respond with the bare value in mg/dL.

- smiles data: "Cc1nnc2n1-c1ccc(Cl)cc1C(c1ccccc1Cl)=NC2"
  unit annotation: "mg/dL"
  TG: 50

// query Find the measured TG of `CN/C(=N/CCSCc1nc[nH]c1C)NC#N` and report it.
// result 46.6

// query Find the measured TG of `CNC(=C[N+](=O)[O-])NCCSCc1ccc(CN(C)C)o1` and report it.
// result 44.8

// query Find the measured TG of `COC(=O)C1=C(C)NC(C)=C(C(=O)OC)C1c1ccccc1[N+](=O)[O-]` and report it.
// result 46.4

// query Find the measured TG of `O=C(OC[C@H]1O[C@@H](OC(=O)c2cc(O)c(O)c(OC(=O)c3cc(O)c(O)c(O)c3)c2)[C@H](OC(=O)c2cc(O)c(O)c(OC(=O)c3cc(O)c(O)c(O)c3)c2)[C@@H](OC(=O)c2cc(O)c(O)c(OC(=O)c3cc(O)c(O)c(O)c3)c2)[C@@H]1OC(=O)c1cc(O)c(O)c(OC(=O)c2cc(O)c(O)c(O)c2)c1)c1cc(O)c(O)c(OC(=O)c2cc(O)c(O)c(O)c2)c1` and report it.
// result 35.8
